Values were extracted from ChEMBL document CHEMBL6103569.

protocol_notes: Clearance in male BALB/c mouse at 10 mg/kg, iv measured upto 24 hrs by LC-MS/MS analysis
Type: ADME, organism-based
setup_conditions: in vivo

molecule	clearance [mL/min/kg]
CN(C)CC1C(=O)O[C@H]2[C@H]1CC/C(CC(F)(F)F)=C\CC[C@@]1(C)O[C@@H]21.O=C(O)/C=C/C(=O)O (stereo partly specified)	253

----------
protocol_notes: AUC (0 to t) in male BALB/c mouse at 10 mg/kg, iv measured upto 24 hrs by LC-MS/MS analysis
Assay type: ADME, organism-based
setup_conditions: in vivo

compound	AUC(0-t) at 24 h
CN(C)CC1C(=O)O[C@H]2[C@H]1CC/C(CC(F)(F)F)=C\CC[C@@]1(C)O[C@@H]21.O=C(O)/C=C/C(=O)O (stereo partly specified)	438 ng·h/mL
